# credit: ChEMBL document CHEMBL4177582

Experiment: Drug metabolism in human liver microsomes assessed as metabolic turnover rate per 0.125 mg/ml protein pre-incubated at 37 degC for 5 mins before NADPH addition and measured after 30 mins by LC/MS/MS method
Format: ADME, microsome
Settings: 0.5 h
Drug metabolism for assorted compounds
recorded endpoint: Drug metabolism (nmol/min/mg)

- substance smiles: "C[C@H](O)[C@@H](CCc1cccc(-c2nccs2)c1)n1cnc2c(N)ncnc21"
  value modifier: "="
  data value: 0.05
- substance smiles: "C[C@H](O)[C@@H](CCc1ccc(C(F)(F)F)cc1)n1cnc2c(N)ncnc21"
  value modifier: "<"
  data value: 0.04
- substance smiles: "C[C@H](O)[C@@H](CCc1cccc(-c2cnccn2)c1)n1cnc2c(N)ncnc21"
  value modifier: "="
  data value: 0.09
- substance smiles: "C[C@H](O)[C@@H](CCc1cccc(C(F)(F)F)c1)n1cnc(C(N)=O)c1"
  value modifier: "="
  data value: 0.06
- substance smiles: "C[C@H](O)[C@@H](CCc1cccc(-c2ccccn2)c1)n1cnc2c(N)ncnc21"
  value modifier: "="
  data value: 0.06
- substance smiles: "CCCCSC[C@H]([C@H](C)O)n1cnc2c(N)ncnc21"
  value modifier: "<"
  data value: 0.04
- substance smiles: "COC(=O)c1cccc(CC[C@H]([C@H](C)O)n2cnc3c(N)ncnc32)c1"
  value modifier: "="
  data value: 0.1
- substance smiles: "C[C@H](O)[C@@H](CSc1cccc(C(F)(F)F)c1)n1cnc2c(N)ncnc21"
  value modifier: "="
  data value: 0.05
- substance smiles: "C[C@H](O)[C@@H](CCc1cccc(C(F)(F)F)c1)n1cnc2c(N)ncnc21"
  value modifier: "="
  data value: 0.06
- substance smiles: "CCc1ccc(CC[C@H]([C@H](C)O)n2cnc3c(N)ncnc32)s1"
  value modifier: "="
  data value: 0.07
- substance smiles: "CNC(=O)c1cccc(CC[C@H]([C@H](C)O)n2cnc3c(N)ncnc32)c1"
  value modifier: "<"
  data value: 0.04
- substance smiles: "C[C@H](O)[C@@H](CCC1CCCCC1)n1cnc2c(N)ncnc21"
  value modifier: "="
  data value: 0.11

###

Assay: Half life in Wistar rat at 1 mg/kg, iv after 0.25 to 24 hrs by LC/MS/MS method
Format: ADME, organism-based
Details: in vivo

- substance smiles: "C[C@H](O)[C@@H](CCc1cccc(C(F)(F)F)c1)n1cnc(C(N)=O)c1"
  half-life (min): 56.4

###

Molecular target: UniProt P56658
Sequence (P56658 whole entry): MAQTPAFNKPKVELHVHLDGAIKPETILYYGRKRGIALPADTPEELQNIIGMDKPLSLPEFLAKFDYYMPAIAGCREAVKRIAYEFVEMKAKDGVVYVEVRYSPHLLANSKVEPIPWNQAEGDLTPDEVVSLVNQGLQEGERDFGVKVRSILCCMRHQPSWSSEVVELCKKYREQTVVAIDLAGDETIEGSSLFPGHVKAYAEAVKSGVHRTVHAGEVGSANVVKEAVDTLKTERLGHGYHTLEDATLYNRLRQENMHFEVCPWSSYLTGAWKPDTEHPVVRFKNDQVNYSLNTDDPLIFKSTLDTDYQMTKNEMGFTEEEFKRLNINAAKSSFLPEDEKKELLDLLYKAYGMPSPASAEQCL
Assay: Inhibition of bovine adenosine deaminase pre-incubated for 5 mins before adenosine addition
Conditions: read-out: Ki
pKi: −log10 of the molar value.
pKi for assorted compounds
recorded endpoint: pKi

- compound: "Cc1cccc(SC[C@H]([C@H](C)O)n2cnc3c(N)ncnc32)c1"
  data value: 7.31
- compound: "CC(C)(O)[C@@H](CCc1ccc(C(F)(F)F)cc1)n1cnc2c(N)ncnc21"
  data value: 7.16
- compound: "C[C@H](O)[C@@H](CCc1cccc(-c2nccs2)c1)n1cnc2c(N)ncnc21"
  data value: 8.59
- compound: "CCCCCC[C@H]([C@H](C)O)n1cnc2c(N)ncnc21 [(+)-EHNA]"
  data value: 8.66
- compound: "C[C@H](O)[C@@H](CCC1CCCCC1)n1cnc2c(N)ncnc21"
  data value: 8.72

###

Assay: Drug metabolism in mouse liver microsomes assessed as metabolic turnover rate per 0.125 mg/ml protein pre-incubated at 37 degC for 5 mins before NADPH addition and measured after 30 mins by LC/MS/MS method
Format: ADME, microsome
Settings: 0.5 h
recorded endpoint: Drug metabolism (nmol/min/mg)

- substance smiles: "C[C@H](O)[C@@H](CCc1cccc(C(F)(F)F)c1)n1cnc2c(N)ncnc21"
  unit symbol: "nmol/min/mg"
  value modifier: "="
  data value: 0.08
- substance smiles: "C[C@H](O)[C@@H](CCc1cccc(-c2cnccn2)c1)n1cnc2c(N)ncnc21"
  unit symbol: "nmol/min/mg"
  value modifier: "="
  data value: 0.16
- substance smiles: "C[C@H](O)[C@@H](CCC1CCCCC1)n1cnc2c(N)ncnc21"
  unit symbol: "nmol/min/mg"
  value modifier: "="
  data value: 0.07
- substance smiles: "C[C@H](O)[C@@H](CSc1cccc(C(F)(F)F)c1)n1cnc2c(N)ncnc21"
  unit symbol: "nmol/min/mg"
  value modifier: "="
  data value: 0.22
- substance smiles: "CCCCSC[C@H]([C@H](C)O)n1cnc2c(N)ncnc21"
  unit symbol: "nmol/min/mg"
  value modifier: "<"
  data value: 0.04
- substance smiles: "C[C@H](O)[C@@H](CCc1cccc(-c2ccccn2)c1)n1cnc2c(N)ncnc21"
  unit symbol: "nmol/min/mg"
  value modifier: "="
  data value: 0.15
- substance smiles: "C[C@H](O)[C@@H](CCc1cccc(C(F)(F)F)c1)n1cnc(C(N)=O)c1"
  unit symbol: "nmol/min/mg"
  value modifier: "="
  data value: 0.04
- substance smiles: "C[C@H](O)[C@@H](CCc1ccc(C(F)(F)F)cc1)n1cnc2c(N)ncnc21"
  unit symbol: "nmol/min/mg"
  value modifier: "="
  data value: 0.04
- substance smiles: "C[C@H](O)[C@@H](CCc1cccc(-c2nccs2)c1)n1cnc2c(N)ncnc21"
  unit symbol: "nmol/min/mg"
  value modifier: "="
  data value: 0.1
- substance smiles: "CNC(=O)c1cccc(CC[C@H]([C@H](C)O)n2cnc3c(N)ncnc32)c1"
  unit symbol: "nmol/min/mg"
  value modifier: "<"
  data value: 0.04
- substance smiles: "CCc1ccc(CC[C@H]([C@H](C)O)n2cnc3c(N)ncnc32)s1"
  unit symbol: "nmol/min/mg"
  value modifier: "="
  data value: 0.11
- substance smiles: "COC(=O)c1cccc(CC[C@H]([C@H](C)O)n2cnc3c(N)ncnc32)c1"
  unit symbol: "nmol/min/mg"
  value modifier: "="
  data value: 0.04
